- assayed-system: GPR139 (Homo sapiens)
- Sequence (Q6DWJ6 whole entry): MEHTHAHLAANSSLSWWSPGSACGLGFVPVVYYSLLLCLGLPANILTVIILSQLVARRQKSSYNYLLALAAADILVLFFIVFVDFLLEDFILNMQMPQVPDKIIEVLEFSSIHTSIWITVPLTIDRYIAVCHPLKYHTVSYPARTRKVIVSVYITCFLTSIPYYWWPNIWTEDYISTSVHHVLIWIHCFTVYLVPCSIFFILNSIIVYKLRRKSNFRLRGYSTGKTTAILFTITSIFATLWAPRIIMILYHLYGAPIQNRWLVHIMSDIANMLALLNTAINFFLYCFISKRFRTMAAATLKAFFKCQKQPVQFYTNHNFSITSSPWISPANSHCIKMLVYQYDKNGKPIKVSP
- experimental-details: GPR139 Agonist titration / agonist counterscreen assay (calcium detection, HEK-GPR139 cells)
- Type: cell-based
- Set-up: expressed in transfected cells; host or cells: HEK Aequorin cells, Maxcyte transient transfection
- condition-description: agonist counterscreen of the antagonists
Please respond with reported GRP139 Agonist activity Averaged Max % Response (±St. Dev.) for every item in the list.
Please state the figure in %; there is no need to write the unit.

Return GRP139 Agonist activity Averaged Max % Response (±St. Dev.) for the following compound: Cc1ccc(-n2cc(-c3ccccc3)nc2SCC(=O)Nc2ccccc2)cc1
2.28

For the compound COc1ccc(-c2cccc(NS(=O)(=O)c3ccc(I)cc3)c2)nn1 , give its measured GRP139 Agonist activity Averaged Max % Response (±St. Dev.) value.
7.64

# return recorded GRP139 Agonist activity Averaged Max % Response (±St. Dev.) for entry O=C(CSc1nc(-c2ccccc2)cn1-c1ccc(F)cc1)Nc1ccccc1
5.85

Find the measured GRP139 Agonist activity Averaged Max % Response (±St. Dev.) of CCN1C(=O)c2cccc3c(S(=O)(=O)Nc4cccc(F)c4)ccc1c23 and report it.
5.61

Return GRP139 Agonist activity Averaged Max % Response (±St. Dev.) for the following compound: Brc1ccc2[nH]cc(-c3nnc4ccc5ccccc5n34)c2c1
−11.2

// Input: O=c1c(-c2ccc(Cl)cc2)c(C(F)(F)F)oc2cc(O)ccc12 . Output its GRP139 Agonist activity Averaged Max % Response (±St. Dev.) only.
68.19

Name the recorded GRP139 Agonist activity Averaged Max % Response (±St. Dev.) of the item Cc1cccc(NC(=O)CCC(=O)OCc2ccc(Br)cc2)c1 in your answer.
45.23

Return GRP139 Agonist activity Averaged Max % Response (±St. Dev.) (reported value) for this compound: CC1=NN(Cc2ccc(Cl)cc2Cl)C(=O)C1
21.98

Find the measured GRP139 Agonist activity Averaged Max % Response (±St. Dev.) of CC(C)C(=O)N1CCN(c2nc(-c3ccccc3)c3c(c2C#N)CCCC3)CC1 and report it.
3.20

Return GRP139 Agonist activity Averaged Max % Response (±St. Dev.) for the following compound: COc1ccc(C2=NN(C3CCCCCC3)C(=O)[C@@H]3CC=CC[C@@H]23)cc1OCCCCOc1ccc(-c2nn[nH]n2)cc1
96.44

# return recorded GRP139 Agonist activity Averaged Max % Response (±St. Dev.) for entry Cc1ccc(-n2cc(-c3ccccc3)nc2SCC(=O)Nc2cccc(C)c2C)cc1
7.97

Answer with the recorded GRP139 Agonist activity Averaged Max % Response (±St. Dev.) for the compound listed here: Cc1ccc(-n2cc(-c3ccccc3)nc2SCC(=O)Nc2ccc(F)cc2)cc1
5.29

Indicate its recorded GRP139 Agonist activity Averaged Max % Response (±St. Dev.); the compound in question is COc1ccc(C(C(=O)NC(C)c2ccccc2)(c2ccccc2)c2ccccc2)cc1 (centres unmarked)
3.89

// fetch GRP139 Agonist activity Averaged Max % Response (±St. Dev.) given entry COc1cc(C(=O)Nc2ccc(N3C(=O)c4ccc(Cl)cc4C3=O)c(C)c2)cc(OC)c1OC
3.98

Answer with reported GRP139 Agonist activity Averaged Max % Response (±St. Dev.) of Cc1ccc(-n2cc(-c3ccccc3)nc2OCC(=O)Nc2ccccc2C)cc1
1.48

Reference source for all entries: patent US20250099420A1
